Molecular target: GmPOPB_S577A (Galerina marginata, UniProt H2E7Q8, S577A)
Construct: His-tag (TEV-cleavable) (cleaved yes); made in house; host or cells: E. coli BL21(DE3)
Sequence (H2E7Q8 1-730 S577A): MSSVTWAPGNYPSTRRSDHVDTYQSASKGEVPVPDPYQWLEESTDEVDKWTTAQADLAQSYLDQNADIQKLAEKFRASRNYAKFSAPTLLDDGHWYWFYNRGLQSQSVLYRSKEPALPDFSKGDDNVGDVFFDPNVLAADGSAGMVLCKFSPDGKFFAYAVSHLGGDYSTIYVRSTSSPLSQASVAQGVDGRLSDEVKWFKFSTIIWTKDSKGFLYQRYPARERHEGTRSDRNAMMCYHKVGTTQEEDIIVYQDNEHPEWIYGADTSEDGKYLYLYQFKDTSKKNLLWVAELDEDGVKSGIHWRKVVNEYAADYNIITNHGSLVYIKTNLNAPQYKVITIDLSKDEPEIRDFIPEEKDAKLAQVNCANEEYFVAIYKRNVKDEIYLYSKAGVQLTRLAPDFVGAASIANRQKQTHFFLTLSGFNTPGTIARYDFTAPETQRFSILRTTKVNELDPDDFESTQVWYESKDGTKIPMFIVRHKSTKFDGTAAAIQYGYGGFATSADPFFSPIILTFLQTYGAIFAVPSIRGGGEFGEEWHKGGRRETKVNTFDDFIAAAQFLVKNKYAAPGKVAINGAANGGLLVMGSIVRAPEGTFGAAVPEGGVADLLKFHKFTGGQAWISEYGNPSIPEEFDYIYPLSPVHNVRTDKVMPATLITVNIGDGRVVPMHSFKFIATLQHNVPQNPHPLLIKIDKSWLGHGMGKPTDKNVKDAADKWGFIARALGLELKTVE
Test: ITC binding to inactive mutant GmPOPB_S577A
Conditions: ITC, 20° C., S577A mutant; read-out: Kd
pKd: −log10 of the molar value. No end group written: not given here.
// label = 1 if pKd is not less than 5, otherwise -1

# example entries with known answers
H-IWGIGCNPWTAE [12mer] :: -1
H-IWGIGCNPWTAEH [13mer] :: 1
H-IWGIGCNPWTA [11mer] :: -1

Inquiry: Does the substance H-IWGIGCNPWT [10mer] have recorded pKd that is 5 or more?
Reply text: -1

Ref: patent US20200291444A1
